# Test Summary: method code SF-AS, from DOI: 10.1002/ardp.19893220504, PMID: 2569302
# Stated Conditions: pH 7.4
Result Type: logD

Worked cases, logD given:
Input COc1ccc2c(=O)c(C)c(-c3ccccc3)oc2c1CN1CCCCC1 . Output logD: 2.63

Recorded logD (compound CCN(CC)Cc1c(OC)ccc2c(=O)c(C)c(-c3ccc(C)cc3)oc12 ): 2.46

Notebook: COc1ccc2c(=O)c(C)c(-c3ccc([N+](=O)[O-])cc3)oc2c1CN1CCCC1 , logD read as 1.83

(P) COc1ccc2c(=O)c(C)c(-c3ccc([N+](=O)[O-])cc3)oc2c1CN(C)C
(Q) COc1ccc2c(=O)c(C)c(-c3ccc(C)cc3)oc2c1CN1CCCC1
Which value of logD is greater, the one for P or the one for Q ? // return label of chosen record
Q

====

# Test Summary: method code SF-AS, from DOI: 10.1002/ardp.19893220504, PMID: 2569302
# Stated Conditions: pH 7.4
Result Type: logD

(A) COc1ccc2c(=O)c(C)c(-c3ccc(C)cc3)oc2c1CN1CCCCC1
(B) CCN(CC)Cc1c(OC)ccc2c(=O)c(C)c(-c3ccc([N+](=O)[O-])cc3)oc12
// which entry has the larger logD value, A or B ? To answer, give the label that identifies your chosen option.
A
(A: 3.13, B: 1.7)

(1) COc1ccc2c(=O)c(C)c(-c3ccc(C)cc3)oc2c1CN1CCOCC1
(2) COc1ccc2c(=O)c(C)c(-c3ccc(F)cc3)oc2c1CN(C)C
Endpoint returns the identifier whose logD is numerically larger, either 1 or 2 . Write down the label of the entry you select.
1
(1: 3.71, 2: 1.97)

(A) COc1ccc2c(=O)c(C)c(-c3ccc([N+](=O)[O-])cc3)oc2c1CN1CCOCC1
(B) CCN(CC)Cc1c(OC)ccc2c(=O)c(C)c(-c3ccc(F)cc3)oc12
Could you tell me which of these two has the smaller logD figure? First: A Second: B Write the label of whichever entry you select.
B
(B: 1.99, A: 3.02)

====

# Test Summary: method code SF-AS, from DOI: 10.1002/ardp.19893220504, PMID: 2569302
# Stated Conditions: pH 7.4
Result Type: logD

Per the record, COc1ccc2c(=O)c(C)c(-c3ccc(Cl)cc3)oc2c1CN1CCCC1 has logD of 2.75

get_value(item= CCN(CC)Cc1c(OC)ccc2c(=O)c(C)c(-c3ccccc3)oc12 , readout=logD) returns 1.99

Reported logD for COc1ccc2c(=O)c(C)c(-c3ccc(Cl)cc3)oc2c1CN1CCCCC1 was 3.46

// COc1ccc2c(=O)c(C)c(-c3ccc(F)cc3)oc2c1CN1CCCCC1 : logD value = 2.71
